Reference source: paper PMC11845477

- Test system: E. coli ATCC 25922 (SEN) and E. coli NCTC13846 (MDR)
- Procedure Details: microbe, parasite or virus in culture
- Format: cell-based, Escherichia coli
- Condition Context: EC-SEN, Escherichia coli ATCC 25922, ancestor strain
Recorded Endpoint: MIC of ancestor (µg/mL)

[
  {
    "Compound": "O=c1ccc2ncc(=O)n3c2n1C[C@H]3CN1CCC(NCc2cc3c(cn2)OCCC3)CC1 [Gepotidacin]",
    "U": "µg/mL",
    "Reported Measurement": 1
  },
  {
    "Compound": "CN(C)[C@@H]1C(O)=C(C(N)=O)C(=O)[C@@]2(O)C(O)=C3C(=O)c4c(O)c(NC(=O)CN5CCCC5)cc(F)c4C[C@H]3C[C@@H]12 [Eravacycline]",
    "U": "µg/mL",
    "Reported Measurement": 0.125
  },
  {
    "Compound": "C[C@@H](O)[C@H]1C(=O)N2C(C(=O)O)=C(S[C@@H]3CN[C@H](C(=O)N(C)C)C3)[C@H](C)[C@H]12 [Meropenem]",
    "U": "µg/mL",
    "Reported Measurement": 0.0312
  },
  {
    "Compound": "CNC(C)C1CCC(N)C(OC2C(N)CC(N)C(OC3OCC(C)(O)C(NC)C3O)C2O)O1 (stereo not shown) [Gentamicin]",
    "U": "µg/mL",
    "Reported Measurement": 1
  }
]
